The following sequences are listed with their measured pIC50 values.
# target.or.test.system: E2F-1/Cyclin A interaction (Homo sapiens)
# assay.explanation: E2F-1/Cyclin A/cdk2 ELISA
# Assay type: binding
# experimental.parameters: original identified sequences (linear); read-out: IC50
pIC50: −log10 of the molar value. Where no end group is shown, it is not given here.
result.type: pIC50

PAKRKLFG [Pro-Ala-Lys-Arg-Lys-Leu-Phe-GIy] | 7.00
SACRNLFG [reference compound] | 6.70
